Biological target: IRAK4 (Homo sapiens, UniProt Q9NWZ3)
Sequence (Q9NWZ3 whole entry): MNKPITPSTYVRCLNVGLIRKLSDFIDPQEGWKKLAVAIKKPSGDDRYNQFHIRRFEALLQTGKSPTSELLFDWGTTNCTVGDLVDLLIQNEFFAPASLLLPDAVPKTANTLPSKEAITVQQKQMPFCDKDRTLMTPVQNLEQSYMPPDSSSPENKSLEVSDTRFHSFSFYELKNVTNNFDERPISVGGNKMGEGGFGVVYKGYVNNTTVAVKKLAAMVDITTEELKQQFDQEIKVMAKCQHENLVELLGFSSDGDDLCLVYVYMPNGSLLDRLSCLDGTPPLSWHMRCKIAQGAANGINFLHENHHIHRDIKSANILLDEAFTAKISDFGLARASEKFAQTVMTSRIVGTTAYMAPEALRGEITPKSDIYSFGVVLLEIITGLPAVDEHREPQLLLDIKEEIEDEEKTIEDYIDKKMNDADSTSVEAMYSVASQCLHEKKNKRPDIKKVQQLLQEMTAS
Experiment: 2-hour 1 mM ATP IRAK4 Biochemical assay (as above, but with 100 pM IRAK4 and 1 mM ATP)
Details: IRAK4 MSD BIOCHEMICAL (1 mM ATP) IC50 (μM), 100 pM IRAK4, 2 hours
Criterion: IC50 strictly less than 0.02 µM. Met: yes (1). Not met: no (0).

molecule="CCOc1cc2nc([C@@H](C)[C@@H]3CCOC3)cn2cc1NC(=O)c1cccc(C(F)(F)F)n1 (single isomer, unassigned) [Example 140]" target="IRAK4 (Homo sapiens, UniProt Q9NWZ3)" answer_label="yes (1)"
molecule="CC(C)Oc1cc2nc(C3CCOCC3)cn2cc1NC(=O)c1cc2ncccn2n1 [Example 382, 2,2,2-trifluoroacetate]" target="IRAK4 (Homo sapiens, UniProt Q9NWZ3)" answer_label="no (0)"
molecule="CCOc1cc2nc([C@H](C)[C@H]3CCOC3)cn2cc1NC(=O)c1cccc(C(F)(F)F)n1 (single isomer, unassigned) [Example 141]" target="IRAK4 (Homo sapiens, UniProt Q9NWZ3)" answer_label="yes (1)"
molecule="CC12CC(c3cn4cc(NC(=O)c5cccc(C(F)F)n5)cc(OC(F)F)c4n3)(CO1)C2 [Example 419]" target="IRAK4 (Homo sapiens, UniProt Q9NWZ3)" answer_label="yes (1)"
molecule="COc1ncccc1C(=O)Nc1cc(OC(F)F)c2nc(C34COC(C)(C3)C4)cn2c1 [Example 420, 2,2,2-trifluoroacetate]" target="IRAK4 (Homo sapiens, UniProt Q9NWZ3)" answer_label="no (0)"
molecule="CCOc1cc2nc(C3CCSC3)cn2cc1NC(=O)c1cccc(C(F)F)n1 (stereo not shown) [Example 150]" target="IRAK4 (Homo sapiens, UniProt Q9NWZ3)" answer_label="yes (1)"
molecule="COc1cc(F)ccc1C(=O)Nc1cn2cc(C34COC(C)(C3)C4)nc2c(OC(C)C)n1 [Example 479, 2,2,2-trifluoroacetate]" target="IRAK4 (Homo sapiens, UniProt Q9NWZ3)" answer_label="yes (1)"
molecule="O=C(Nc1cn2cc(C3CCOCC3)nc2cc1OC(F)F)c1cccc(C(F)F)n1 [Example 394]" target="IRAK4 (Homo sapiens, UniProt Q9NWZ3)" answer_label="yes (1)"
molecule="COc1nc(NC(=O)c2coc(C)n2)cn2cc(C34CCC(C)(C3)OC4)nc12 (stereo not shown) [Example 471, 2,2,2-trifluoroacetate]" target="IRAK4 (Homo sapiens, UniProt Q9NWZ3)" answer_label="no (0)"
molecule="CCOc1cc2nc(C(C)(C)C#N)cn2cc1NC(=O)c1coc(C(F)F)n1 [Example 359]" target="IRAK4 (Homo sapiens, UniProt Q9NWZ3)" answer_label="no (0)"
molecule="COc1ccccc1C(=O)Nc1cn2cc(C3CCOCC3)nc2c(OC)n1 [Example 457, 2,2,2-trifluoroacetate]" target="IRAK4 (Homo sapiens, UniProt Q9NWZ3)" answer_label="no (0)"
molecule="CCOc1cc2nc(C3C4COCC43)cn2cc1NC(=O)c1ccn(CC(F)(F)F)n1 (stereo not shown) [Example 235]" target="IRAK4 (Homo sapiens, UniProt Q9NWZ3)" answer_label="no (0)"
molecule="Cc1cc(NC(=O)c2cccc3ccnn23)cn2cc(C34COC(C)(C3)C4)nc12 [Example 408, 2,2,2-trifluoroacetate]" target="IRAK4 (Homo sapiens, UniProt Q9NWZ3)" answer_label="no (0)"
molecule="COc1nc(NC(=O)c2ccn(C(C)C)n2)cn2cc(C3CCOCC3)nc12 [Example 462, 2,2,2-trifluoroacetate]" target="IRAK4 (Homo sapiens, UniProt Q9NWZ3)" answer_label="no (0)"
molecule="CC(C)Oc1cc2nc(-c3cn(C)nc3C(F)F)cn2cc1NC(=O)c1cccc(C(F)F)n1 [Example 264]" target="IRAK4 (Homo sapiens, UniProt Q9NWZ3)" answer_label="yes (1)"
molecule="CCOc1cc2nc(C(C)(F)F)cn2cc1NC(=O)c1cccc(C(F)F)n1 [Example 109]" target="IRAK4 (Homo sapiens, UniProt Q9NWZ3)" answer_label="yes (1)"
molecule="CCOc1cc2nc(C3CCOCC3)cn2cc1NC(=O)c1cccc(CC)n1 [Example 217]" target="IRAK4 (Homo sapiens, UniProt Q9NWZ3)" answer_label="yes (1)"
molecule="CCOc1cc2nc(C3CCOCC3)cn2cc1NC(=O)c1cccc(OC)c1F [Example 215]" target="IRAK4 (Homo sapiens, UniProt Q9NWZ3)" answer_label="no (0)"
molecule="CCOc1cc2nc(C3CCOCC3)cn2cc1NC(=O)c1cccc(OCCOC)n1 [Example 516]" target="IRAK4 (Homo sapiens, UniProt Q9NWZ3)" answer_label="no (0)"
molecule="CCOc1cc2nc(C(=O)N(C)C)cn2cc1NC(=O)c1cccc(C(F)F)n1 [Example 108]" target="IRAK4 (Homo sapiens, UniProt Q9NWZ3)" answer_label="no (0)"
molecule="O=C(Nc1cc(OCC(F)F)c2nc(C3CCOCC3)cn2c1)c1cccc(C(F)F)n1 [Example 289]" target="IRAK4 (Homo sapiens, UniProt Q9NWZ3)" answer_label="yes (1)"
molecule="COc1nc(NC(=O)c2cccc(C(F)F)n2)cn2cc(C3CCOC(C)(C)C3)nc12 (stereo not shown) [Example 560, 2,2,2-trifluoroacetate]" target="IRAK4 (Homo sapiens, UniProt Q9NWZ3)" answer_label="yes (1)"
molecule="COc1ccccc1C(=O)Nc1cn2cc(C34COC(C)(C3)C4)nc2c(OC)n1 [Example 443]" target="IRAK4 (Homo sapiens, UniProt Q9NWZ3)" answer_label="no (0)"
molecule="CCn1ccc(C(=O)Nc2cn3cc(C4CCOCC4)nc3c(OC)n2)n1 [Example 463, 2,2,2-trifluoroacetate]" target="IRAK4 (Homo sapiens, UniProt Q9NWZ3)" answer_label="no (0)"
molecule="CCOc1cc2nc(C3CCOCC3)cn2cc1NC(=O)c1cccc(OC2CC2)n1 [Example 361]" target="IRAK4 (Homo sapiens, UniProt Q9NWZ3)" answer_label="yes (1)"
molecule="CC(C)Oc1c(NC(=O)c2ccn(C(F)F)n2)cn2cc(C34COC(C)(C3)C4)nc2c1F [Example 547]" target="IRAK4 (Homo sapiens, UniProt Q9NWZ3)" answer_label="yes (1)"
molecule="COc1nc(NC(=O)c2coc(C3CC3)n2)cn2cc(C34CCC(C)(C3)OC4)nc12 (stereo not shown) [Example 472, 2,2,2-trifluoroacetate]" target="IRAK4 (Homo sapiens, UniProt Q9NWZ3)" answer_label="yes (1)"
molecule="CCOc1cc2nc(COc3ccccn3)cn2cc1NC(=O)c1cccc(C(F)F)n1 [Example 86]" target="IRAK4 (Homo sapiens, UniProt Q9NWZ3)" answer_label="yes (1)"
molecule="CCOc1cc2nc(CC3CCOC3)cn2cc1NC(=O)c1coc(-c2cnn(C)c2)n1 (stereo not shown) [Example 22]" target="IRAK4 (Homo sapiens, UniProt Q9NWZ3)" answer_label="yes (1)"
molecule="CCOc1cc2nc(C3CC3)cn2cc1NC(=O)c1cccc(C(F)(F)F)n1 [Example 2]" target="IRAK4 (Homo sapiens, UniProt Q9NWZ3)" answer_label="yes (1)"
molecule="CCOc1cc2nc(C3CCOCC3)cn2cc1NC(=O)c1cccc(C(F)CF)n1 (stereo not shown) [Example 239]" target="IRAK4 (Homo sapiens, UniProt Q9NWZ3)" answer_label="yes (1)"
